# Test system: NCI-H196 complex spheroid growth, percent test/control
# experimentalDetails: Anticancer human tumor NCI-H196 cell line growth inhibition [AhR];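 note: seven days of drug exposure starting three days after plating; 100% = DMSO vehicle control wells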
# measurementParameters: second compound 0.316 µM; first compound 1 µM; hits give low values
measureName: viability, T/C (%)
Your answer is read as %, so omit the unit and give the number.

Worked cases, viability, T/C given:
{"molecule": "COc1cc(Nc2ncc3c(n2)-c2ccc(Cl)cc2C(c2c(F)cccc2OC)=NC3)ccc1C(=O)O + Cc1ccccc1N=Nc1ccc(NC(=O)c2ccnn2C)c(C)c1", "viability, T/C / %": 118}
{"molecule": "CC1COCCN1c1cc(C2(S(C)(=N)=O)CC2)nc(-c2ccnc3[nH]ccc23)n1 (stereo unspecified) + Cc1cncc(-c2nc(NCCc3c[nH]c4ccccc34)c3ncn(C(C)C)c3n2)c1", "viability, T/C / %": 90.3}

Lab book: viability, T/C of CC1COCCN1c1cc(C2(S(C)(=N)=O)CC2)nc(-c2ccnc3[nH]ccc23)n1 (stereo unspecified) + CC(CO)NC(=O)c1cc(-c2ccc(Cl)cc2)nn(-c2cnn(C)c2)c1=O noted as 104

Lab book: viability, T/C of CC(C)c1c(-c2ccccc2)nc2c(C#N)c[nH]n2c1=O + Cc1ccccc1N=Nc1ccc(NC(=O)c2ccnn2C)c(C)c1 noted as 93.6

Lab book: viability, T/C of O=C(c1cc(Cc2n[nH]c(=O)c3ccccc23)ccc1F)N1CCN(C(=O)C2CC2)CC1 + Cc1cncc(-c2nc(NCCc3c[nH]c4ccccc34)c3ncn(C(C)C)c3n2)c1 noted as 94

Lab book: viability, T/C of COc1ccc([C@@H](O)c2cc(-c3ncnc4cc(N5CCOCC5)ccc34)c(F)cc2Cl)nn1 + Cc1cncc(-c2nc(NCCc3c[nH]c4ccccc34)c3ncn(C(C)C)c3n2)c1 noted as 97.7

====

# System: NCI-H196 complex spheroid growth, percent test/control
# experimentalDetails: Anticancer human tumor NCI-H196 cell line growth inhibition [AhR];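 note: seven days of drug exposure starting three days after plating; 100% = DMSO vehicle control wells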
# measurementParameters: second compound 3.16 µM; first compound 0.1 µM; hits give low values
measureName: viability, T/C (%)
Your answer is read as %, so omit the unit and give the number.

{"compound": "Nc1ccccc1NC(=O)c1ccc(CNC(=O)OCc2cccnc2)cc1 + Cc1ccccc1N=Nc1ccc(NC(=O)c2ccnn2C)c(C)c1", "recordedNumber": 80.8}
{"compound": "CC1COCCN1c1cc(C2(S(C)(=N)=O)CC2)nc(-c2ccnc3[nH]ccc23)n1 (stereo not drawn) + Cc1cncc(-c2nc(NCCc3c[nH]c4ccccc34)c3ncn(C(C)C)c3n2)c1", "recordedNumber": 103}

Kindly consider the entry below.
Measured viability, T/C for this entry CC1(C)CCC(CN2CCN(c3ccc(C(=O)NS(=O)(=O)c4ccc(NCC5CCOCC5)c([N+](=O)[O-])c4)c(Oc4cnc5[nH]ccc5c4)c3)CC2)=C(c2ccc(Cl)cc2)C1 + Cc1ccccc1N=Nc1ccc(NC(=O)c2ccnn2C)c(C)c1 on NCI-H196 complex spheroid growth, percent test/control: 111

====

Each entry below lists one item and its recorded viability, T/C value.
# Tested on: NCI-H196 complex spheroid growth, percent test/control
# experimentalDetails: Anticancer human tumor NCI-H196 cell line growth inhibition [AhR];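 note: seven days of drug exposure starting three days after plating; 100% = DMSO vehicle control wells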
# measurementParameters: second compound 0.316 µM; first compound 1 µM; hits give low values
Your answer is read as %, so omit the unit and give the number.

Worked cases, viability, T/C given:
{"molecule": "O=C(c1cc(Cc2n[nH]c(=O)c3ccccc23)ccc1F)N1CCN(C(=O)C2CC2)CC1 + Cc1ccccc1N=Nc1ccc(NC(=O)c2ccnn2C)c(C)c1", "quantityUnit": "%", "viability, T/C": 93.1}
{"molecule": "NS(=O)(=O)OCC1CC(n2ccc3c(NC4CCc5ccccc54)ncnc32)CC1O (stereo unspecified) + Cc1cncc(-c2nc(NCCc3c[nH]c4ccccc34)c3ncn(C(C)C)c3n2)c1", "quantityUnit": "%", "viability, T/C": 55.6}
{"molecule": "COc1ccc([C@@H](O)c2cc(-c3ncnc4cc(N5CCOCC5)ccc34)c(F)cc2Cl)nn1 + Cc1ccccc1N=Nc1ccc(NC(=O)c2ccnn2C)c(C)c1", "quantityUnit": "%", "viability, T/C": 78.3}
{"molecule": "COc1cc(C2c3cc4c(cc3C(OC3OC5COC(C)OC5C(O)C3O)C3COC(=O)C23)OCO4)cc(OC)c1O (stereo unspecified) + Cc1cncc(-c2nc(NCCc3c[nH]c4ccccc34)c3ncn(C(C)C)c3n2)c1", "quantityUnit": "%", "viability, T/C": 105}
{"molecule": "Nc1ncn(C2CC(O)C(CO)O2)c(=O)n1 (stereo unspecified) + Cc1ccccc1N=Nc1ccc(NC(=O)c2ccnn2C)c(C)c1", "quantityUnit": "%", "viability, T/C": 96.4}
{"molecule": "CC1(C)CCC(CN2CCN(c3ccc(C(=O)NS(=O)(=O)c4ccc(NCC5CCOCC5)c([N+](=O)[O-])c4)c(Oc4cnc5[nH]ccc5c4)c3)CC2)=C(c2ccc(Cl)cc2)C1 + Cc1cncc(-c2nc(NCCc3c[nH]c4ccccc34)c3ncn(C(C)C)c3n2)c1", "quantityUnit": "%", "viability, T/C": 93.1}
{"molecule": "COc1cccc2c1C(=O)c1c(O)c3c(c(O)c1C2=O)CC(O)(C(=O)CO)CC3OC1CC(N)C(O)C(C)O1 (stereo unspecified) + Cc1ccccc1N=Nc1ccc(NC(=O)c2ccnn2C)c(C)c1", "quantityUnit": "%", "viability, T/C": 36.7}
{"molecule": "Nc1ccccc1NC(=O)c1ccc(CNC(=O)OCc2cccnc2)cc1 + Cc1ccccc1N=Nc1ccc(NC(=O)c2ccnn2C)c(C)c1", "quantityUnit": "%", "viability, T/C": 44.9}

Lab book: viability, T/C of CC1(C)CCC(CN2CCN(c3ccc(C(=O)NS(=O)(=O)c4ccc(NCC5CCOCC5)c([N+](=O)[O-])c4)c(Oc4cnc5[nH]ccc5c4)c3)CC2)=C(c2ccc(Cl)cc2)C1 + Cc1ccccc1N=Nc1ccc(NC(=O)c2ccnn2C)c(C)c1 noted as 102

Lab book: viability, T/C of CC1(C)CCC(CN2CCN(c3ccc(C(=O)NS(=O)(=O)c4ccc(NCC5CCOCC5)c([N+](=O)[O-])c4)c(Oc4cnc5[nH]ccc5c4)c3)CC2)=C(c2ccc(Cl)cc2)C1 + CC(CO)NC(=O)c1cc(-c2ccc(Cl)cc2)nn(-c2cnn(C)c2)c1=O noted as 101

Lab book: viability, T/C of NS(=O)(=O)OCC1CC(n2ccc3c(NC4CCc5ccccc54)ncnc32)CC1O (stereo unspecified) + Cc1ccccc1N=Nc1ccc(NC(=O)c2ccnn2C)c(C)c1 noted as 67.4

src = PubChem BioAssay AID1919016
